assay: Selectivity index, ratio of CC50 for mock-infected human MT4 cells to EC50 for antiviral activity against HIV1 3B infected in human MT4 cells; assay type: toxicity, cell-based; conditions: mock-infected (CC50) and HIV1 3B infected (EC50)
outcome measure: selectivity ratio
Numbers only.

Please review the entries below; each comes with its answer.
Exam item: Query: selectivity ratio; subject: `N#Cc1ccc(Nc2cc(Oc3c(Br)cc(Br)cc3Br)cnc2N)cc1`
Marked response: 55

Exam item: Entry `Cc1cc(Cl)cc(C)c1Oc1cnc(N)c(Nc2ccc(C#N)cc2)c1` please
Marked response: 95

Exam item: Record: `Cc1cc(C)c(Nc2cnc([N+](=O)[O-])c(Nc3ccc(C#N)cc3)c2)c(C)c1`
Marked response: 3960

Exam item: Continue with `Cc1cc(C#N)cc(C)c1Oc1cnc(N)c(Nc2ccc(C#N)cc2)c1`
Marked response: 577

Exam item: How about `N#Cc1ccc(Nc2cc(Oc3c(Cl)cc(Cl)cc3Cl)cnc2N)cc1` ?
Marked response: 680

Provide selectivity ratio values for the following items, in order.
1. Cc1cc(Br)cc(C)c1Oc1cnc(N)c(Nc2ccc(C#N)cc2)c1
2. Cc1cc(C)c(Oc2cnc(N)c(Nc3ccc(C#N)cc3)c2)c(C)c1

Marked response:
32
227

src = ChEMBL document CHEMBL4190364
